These measurements were taken from patent US20080090805A1.

# EXPERIMENTAL TARGET: CB1 (mutant) (Homo sapiens)
# Sequence (P21554 1-417, change not shown): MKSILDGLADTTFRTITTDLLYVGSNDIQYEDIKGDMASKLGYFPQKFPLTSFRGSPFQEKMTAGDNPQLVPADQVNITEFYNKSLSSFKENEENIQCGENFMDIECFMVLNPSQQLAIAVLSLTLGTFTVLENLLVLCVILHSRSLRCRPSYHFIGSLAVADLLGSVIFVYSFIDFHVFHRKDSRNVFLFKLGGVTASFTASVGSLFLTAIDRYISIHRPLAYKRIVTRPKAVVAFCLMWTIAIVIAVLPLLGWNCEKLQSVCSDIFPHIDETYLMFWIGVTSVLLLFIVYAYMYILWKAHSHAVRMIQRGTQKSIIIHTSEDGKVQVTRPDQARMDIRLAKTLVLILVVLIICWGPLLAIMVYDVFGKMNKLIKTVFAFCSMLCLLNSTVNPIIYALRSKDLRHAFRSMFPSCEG
# ASSAY PROCEDURE: R-SAT functional receptor assay, CB1 (mutant, truncated after amino acid 417)
# Format: cell-based
# ASSAY SETUP: Appendix A; R-SAT CB1; receptor form (mutant or wild-type) not stated; read-out: pIC50 (converted)
Values of IC50 strictly less than 80 nM map to rule met, and values of at least 80 nM map to rule not met.

Prompt line: Is IC50 of `O=C(NCc1ccncc1)c1ccc2c(c1)N=C(c1ccccc1Cl)c1ccccc1S2` strictly below 80 nM?
Response line: rule not met

Prompt line: Likewise for `CONC(=O)c1ccc2c(c1)N=C(c1cccc(F)c1)c1ccccc1S2` ?
Response line: rule not met

Prompt line: Likewise for `CCCC1=Nc2cc(C(=O)NC3CCN(C(=O)OCC)CC3)ccc2Sc2ccccc21` ?
Response line: rule not met

Prompt line: Likewise for `CCCCN(C)CCCNC(=O)c1ccc2c(c1)N=C(CCC)c1ccccc1S2` ?
Response line: rule not met

Prompt line: Likewise for O=C(NCCc1cccc(Cl)c1)c1ccc2c(c1)N=C(c1ccccc1)c1ccccc1S2 [drawing 1069] ?
Response line: rule met

Prompt line: Likewise for `Cc1ccsc1C1=Nc2cc(C(=O)NCCc3ccncc3)ccc2Sc2ccccc21` ?
Response line: rule not met

Prompt line: Likewise for CC(C)CCNC(=O)c1ccc2c(c1)N=C(c1cccc(Cl)c1)c1ccccc1S2 [drawing 567] ?
Response line: rule met

Prompt line: Likewise for CCN(CCNC(=O)c1ccc2c(c1)N=C(c1ccc(Cl)cc1)c1ccccc1S2)c1ccccc1 [drawing 635] ?
Response line: rule met

Prompt line: Likewise for CCOCCNC(=O)c1ccc2c(c1)N=C(c1ccc(F)cc1)c1ccccc1S2 [drawing 596] ?
Response line: rule met

Prompt line: Likewise for `CCCC1=Nc2cc(C(=O)NCCCN(CC(C)C)CC(C)C)ccc2Sc2ccccc21` ?
Response line: rule met

Prompt line: Likewise for `CCCCN(C)C(=O)c1ccc2c(c1)N=C(c1ccc(Cl)cc1)c1ccccc1S2` ?
Response line: rule met

Prompt line: Likewise for O=C(NCCc1cccnc1)c1ccc2c(c1)N=C(c1ccc(Cl)c(Cl)c1)c1ccccc1S2 [drawing 825] ?
Response line: rule met

Prompt line: Likewise for `CCONC(=O)c1ccc2c(c1)N=C(c1ccc(Cl)s1)c1ccccc1S2` ?
Response line: rule met

Prompt line: Likewise for `CCCC1=Nc2cc(C(=O)NCCc3ccc(OC)c(OC)c3)ccc2Sc2ccccc21` ?
Response line: rule met

Prompt line: Likewise for `CONC(=O)c1ccc2c(c1)N=C(c1ccc(Cl)cc1F)c1ccccc1S2` ?
Response line: rule not met
